system: HCC-2998 colon; assay: NCI tumour cell line growth inhibition, 48 h
TGI reference

>  <compound>
Nc1ccc(N=Nc2ccc(-c3ccc(N=Nc4c(S(=O)(=O)O)cc5cc(S(=O)(=O)O)c(N=Nc6ccc([N+](=O)[O-])cc6)c(N)c5c4O)cc3)cc2)c2cc(S(=O)(=O)O)ccc12

>  <TGI>
> 100 µM

$$$$
>  <compound>
CC(C)(Cl)C(Br)CCC(=CCBr)CBr (mixture of isomers)

>  <TGI>
14 µM

$$$$
>  <compound>
COc1ccc(-c2nc(SCC(=O)N/N=C/c3ccc([N+](=O)[O-])cc3)[nH]c2-c2ccc(OC)cc2)cc1

>  <TGI>
31.5 µM

$$$$
>  <compound>
CCC(CO)COC(=O)/C=C/C(=O)OCC(CC)CO (configuration not stated)

>  <TGI>
> 100 µM

$$$$
>  <compound>
CC1(C)OP(=O)(c2ccccc2)C=C1Br (configuration not stated)

>  <TGI>
> 100 µM

$$$$
>  <compound>
CCc1nc2c(n1CC)C(=O)c1ccccc1C2=O

>  <TGI>
> 100 µM

$$$$
>  <compound>
COc1ccc2cc(NC(=O)Nn3cnnc3)ccc2c1

>  <TGI>
> 100 µM

$$$$
>  <compound>
N#CC1(C#N)C2C=CC(C3CC=CC32)C1(C#N)C#N (configuration not stated)

>  <TGI>
> 50 µM

$$$$
>  <compound>
CC12CCC3C(CCC4(O)C=CCCC34C=O)C1(O)CC(O)C2c1ccc(=O)oc1 (configuration not stated)

>  <TGI>
0.252 µM

$$$$
>  <compound>
COc1ccc(/C=C/C(=O)c2ccc(B(O)O)cc2)cc1O

>  <TGI>
18.6 µM

$$$$
>  <compound>
CCOC(=O)Nc1ccc2c3c(cccc13)-c1ccccc1-2

>  <TGI>
> 100 µM

$$$$
>  <compound>
CCOC(=O)C(=O)N=Nc1c(O)[nH]c2ccccc12

>  <TGI>
> 100 µM

$$$$
>  <compound>
CNC(=S)N/N=C(\C)c1cc(OC)c(OC)cc1O

>  <TGI>
> 100 µM

$$$$
>  <compound>
O=C(O)c1cc(C(=O)C(=O)c2cc(C(=O)O)c(O)c3ccccc23)c2ccccc2c1O

>  <TGI>
> 100 µM

$$$$
>  <compound>
[N-]=[N+]=NCC(=O)c1c[nH]c(=O)[nH]c1=O

>  <TGI>
> 100 µM

$$$$
>  <compound>
O=C(CC(O)(C(F)(F)Cl)C(F)(F)Cl)CC(O)(C(F)(F)Cl)C(F)(F)Cl

>  <TGI>
> 10 µM

$$$$
>  <compound>
Cc1cn2c(/C=N/NC3=NCCN3)c(-c3ccc(Cl)c([N+](=O)[O-])c3)nc2s1

>  <TGI>
> 50 µM

$$$$
>  <compound>
CCOC(=O)c1sc2c(c1OC(=O)c1ccc(Cl)cc1Cl)c(=O)n(-c1ccccc1)c(=S)n2-c1ccccc1

>  <TGI>
> 74.6 µM

$$$$
>  <compound>
CC[n+]1c(/C=C/c2ccc(N3CCCC3)cc2)cccc1/C=C/c1ccc(N2CCCC2)cc1

>  <TGI>
0.338 µM

$$$$
>  <compound>
CCN1C2=C(SC(=S)C1=C1SC(C(=O)c3ccccc3)=C(C(=O)c3ccccc3)S1)SC(=Nc1ccccc1)C2=O

>  <TGI>
> 100 µM

$$$$
>  <compound>
Cn1cnc([N+](=O)[O-])c1Sc1nccn1-c1ccccc1

>  <TGI>
> 100 µM

$$$$
>  <compound>
CCCc1c(O)c2ccccc2[nH]c1=O

>  <TGI>
> 100 µM

$$$$
